pIC50 for assorted molecules
Biological target: Tyrosine 3-monooxygenase (Homo sapiens, UniProt P07101)
Sequence (P07101 whole entry): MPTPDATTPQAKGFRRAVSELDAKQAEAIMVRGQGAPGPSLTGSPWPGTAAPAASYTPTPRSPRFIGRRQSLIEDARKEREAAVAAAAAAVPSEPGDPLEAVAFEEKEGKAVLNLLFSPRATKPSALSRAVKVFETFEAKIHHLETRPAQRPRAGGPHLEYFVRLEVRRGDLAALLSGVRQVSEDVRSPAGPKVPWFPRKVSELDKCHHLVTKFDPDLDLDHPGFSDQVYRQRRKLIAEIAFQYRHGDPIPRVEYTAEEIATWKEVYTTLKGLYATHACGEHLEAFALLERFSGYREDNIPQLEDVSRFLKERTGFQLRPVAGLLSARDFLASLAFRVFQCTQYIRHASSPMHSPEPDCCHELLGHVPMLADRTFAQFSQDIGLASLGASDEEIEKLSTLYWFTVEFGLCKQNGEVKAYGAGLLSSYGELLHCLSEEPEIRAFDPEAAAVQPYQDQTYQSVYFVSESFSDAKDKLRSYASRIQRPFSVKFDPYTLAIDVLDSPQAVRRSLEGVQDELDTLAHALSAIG
Field pIC50 (float): negative decimal logarithm of the concentration in molar.

>>> recorded_number("CCCN1CCc2cccc3c2[C@H]1Cc1cccc(O)c1-3")
4.38

[in] What measured pIC50 goes with CCCN1CCc2cccc3c2[C@@H]1Cc1cccc(O)c1-3 ?
[out] 4.06

----------
Assay read-out IC50; system under study: Sodium-dependent dopamine transporter (Rattus norvegicus, UniProt P23977).
Sequence (P23977 whole entry): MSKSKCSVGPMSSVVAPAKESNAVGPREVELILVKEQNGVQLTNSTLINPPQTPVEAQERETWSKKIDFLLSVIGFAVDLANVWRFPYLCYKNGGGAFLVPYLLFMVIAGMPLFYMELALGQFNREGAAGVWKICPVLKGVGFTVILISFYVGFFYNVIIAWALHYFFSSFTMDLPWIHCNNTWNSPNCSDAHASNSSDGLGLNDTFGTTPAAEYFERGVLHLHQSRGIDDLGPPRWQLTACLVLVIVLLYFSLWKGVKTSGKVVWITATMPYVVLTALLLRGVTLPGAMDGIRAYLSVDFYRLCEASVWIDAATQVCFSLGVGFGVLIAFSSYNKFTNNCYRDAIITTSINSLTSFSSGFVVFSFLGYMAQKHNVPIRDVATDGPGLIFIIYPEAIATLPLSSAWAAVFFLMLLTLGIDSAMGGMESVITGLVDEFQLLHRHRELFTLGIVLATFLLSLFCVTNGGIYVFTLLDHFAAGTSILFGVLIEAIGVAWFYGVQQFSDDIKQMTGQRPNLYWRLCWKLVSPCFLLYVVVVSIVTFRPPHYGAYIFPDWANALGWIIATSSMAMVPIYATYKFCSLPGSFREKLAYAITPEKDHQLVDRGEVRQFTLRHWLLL

Guide cases for IC50, answers given:
>>> result("COc1c(O)c2c3c(c1OC)CCN(C)C3Cc1ccccc1-2 (centres undefined)")
"40 µM"
>>> result("COc1cccc2c1-c1c3c(cc4c1C(C2)N(C)CC4)OCO3 (centres undefined)")
"32 µM"
>>> result("CN1CCc2cc3c(c4c2C1Cc1cccc(O)c1-4)OCO3 (centres undefined)")
"46 µM"

Now examine the next entry.
[in] Form field: IC50 recorded for COc1cc2c3c(c1OC)-c1c(ccc(O)c1O)CC3N(C)CC2 (centres undefined) with Sodium-dependent dopamine transporter (Rattus norvegicus, UniProt P23977) (enter value)
[out] > 100 µM
